System: MDA-MB-435
Experiment: Cytotoxicity against Homo sapiens (human) MDA-MB-435 cells assessed as inhibition of cell viability by SRB assay
Type: functional, cell-based
Flag rule - IC50 less than 20 µg/mL flags condition met; the remaining entries get condition not met.

{"columns": ["compound", "discreteLabel"],
 "data": [
  ["Nc1ccc2oc(-c3ccccc3)cc(=O)c2c1 [6-AMINOFLAVONE]", "condition not met"],
  ["COc1cccc2c1C(=O)c1c(O)c3c(c(O)c1C2=O)C[C@@](O)(C(=O)CO)C[C@@H]3O[C@H]1C[C@H](N)[C@H](O)[C@H](C)O1.Cl [DOXORUBICIN HYDROCHLORIDE]", "condition met"],
  ["O=C1/C(=C\\c2ccc(O)cc2)N=C(c2ccccc2)N1c1ccc2oc(-c3ccccc3)cc(=O)c2c1", "condition not met"],
  ["COc1ccc(/C=C2/N=C(c3ccccc3)N(c3ccc4oc(-c5ccccc5)cc(=O)c4c3)C2=O)cc1OC", "condition met"],
  ["O=C1/C(=C\\c2ccccc2)N=C(c2ccccc2)N1c1ccc2oc(-c3ccccc3)cc(=O)c2c1", "condition not met"],
  ["COc1ccc(/C=C2/N=C(c3ccccc3)N(c3ccc4oc(-c5ccccc5)cc(=O)c4c3)C2=O)cc1", "condition not met"]
]}
